Examples of variants with documented self-cleavage follow.
B1: LINE1-full (parent)
chain: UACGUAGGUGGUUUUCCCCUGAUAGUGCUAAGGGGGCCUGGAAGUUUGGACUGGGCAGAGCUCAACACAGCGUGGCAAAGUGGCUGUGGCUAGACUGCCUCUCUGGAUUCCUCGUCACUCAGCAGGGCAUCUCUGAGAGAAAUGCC

Variants of: B1
Assay: self-cleavage, relative activity (ratio to wild type); higher = more cleavage; in vitro, sequencing; the parent is a self-cleaving ribozyme
Answer with the value's number alone.

Variant Designation	Observed Result
A67C A129G	0
G86A U91C	0.07
A31G A43U	0.89
U26C G86A	0.05
C68U A107U	0.19
A22G U134A	1.03
U23C A79U	2.06
G40A A57U	0.05
U45C G93A	0.07
U9A A94U	0.39

self-cleavage reported for this variant U5C G27A : 0.17

variant G53A U143C , self-cleavage observed: 1.59

Lab note: G60A A78U gave self-cleavage of 0.02

self-cleavage recorded for this variant, A57G G82C , is 1.36

Documented self-cleavage of A30U C95A : 0.03

Measured self-cleavage, U23A A141G : 1.21

GET /value?item= G27U C61U &field=self-cleavage returns 0.06

// field: self-cleavage; key: A124C U132C ; value = 1.11
